- target: mGluR3-S686A (Rattus norvegicus, UniProt P31422, S686A)
- Sequence (P31422 23-879 S686A): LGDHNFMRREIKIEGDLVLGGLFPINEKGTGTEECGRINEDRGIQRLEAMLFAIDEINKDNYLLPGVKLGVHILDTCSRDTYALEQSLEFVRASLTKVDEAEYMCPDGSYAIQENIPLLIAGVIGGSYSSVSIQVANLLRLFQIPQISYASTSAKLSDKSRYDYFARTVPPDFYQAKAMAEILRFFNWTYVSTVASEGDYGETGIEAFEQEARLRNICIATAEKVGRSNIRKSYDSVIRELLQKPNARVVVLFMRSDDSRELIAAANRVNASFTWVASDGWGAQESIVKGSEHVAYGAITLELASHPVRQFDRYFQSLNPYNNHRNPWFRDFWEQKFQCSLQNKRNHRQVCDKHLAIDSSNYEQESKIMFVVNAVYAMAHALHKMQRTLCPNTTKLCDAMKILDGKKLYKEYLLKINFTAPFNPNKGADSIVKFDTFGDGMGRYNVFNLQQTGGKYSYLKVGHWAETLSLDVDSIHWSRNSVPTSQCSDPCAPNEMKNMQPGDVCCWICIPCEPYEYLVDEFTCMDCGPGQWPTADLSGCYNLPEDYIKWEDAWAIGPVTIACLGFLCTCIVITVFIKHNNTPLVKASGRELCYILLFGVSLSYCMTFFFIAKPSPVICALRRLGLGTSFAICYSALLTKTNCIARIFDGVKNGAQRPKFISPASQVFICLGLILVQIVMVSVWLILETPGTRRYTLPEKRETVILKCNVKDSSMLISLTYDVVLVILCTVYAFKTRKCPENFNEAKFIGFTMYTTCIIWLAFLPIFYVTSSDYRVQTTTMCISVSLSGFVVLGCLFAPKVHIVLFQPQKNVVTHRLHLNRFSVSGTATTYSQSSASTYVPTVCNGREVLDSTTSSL
- assaySummary: Calcium imaging in HEK 293 T cells
- studyConditions: read-out: Glutamate EC50, calcium imaging; normalized to saturating (1 mM) glutamate
experimentalEndpoint: pEC50
# pEC50 = -log10(concentration in molar units)

Look up and report measured pEC50 (mGluR3-S686A (Rattus norvegicus, UniProt P31422, S686A)) for the following compound: N[C@@H](CCC(=O)O)C(=O)O [glutamate]
5.29

---

- target: mGluR3-I788A (Rattus norvegicus, UniProt P31422, I788A)
- Sequence (P31422 23-879 I788A): as the sequence (P31422 23-879 S686A) above, with A664S, I766A counted along it
- assaySummary: Calcium imaging in HEK 293 T cells
- Format: cell-based
- Set-up: we performed calcium imaging experiments with mutations in the full-length mGluR2 background; expressed in transfected cells; host or cells: HEK 293 T
- studyConditions: read-out: Glutamate EC50, calcium imaging; normalized to saturating (1 mM) glutamate; unit inferred
- Protocol: Approximately 30 ROIs were analyzed per movie.
experimentalEndpoint: pEC50
The value called pEC50 is obtained by taking minus log10 of the concentration in mol/L.

Answer with reported pEC50 of N[C@@H](CCC(=O)O)C(=O)O [glutamate]
4.98

---

- target: mGluR3-3xTM4 (Rattus norvegicus, UniProt P31422, F690A/G694A/S686A)
- Sequence (P31422 23-879 S686A/F690A/G694A): as the sequence (P31422 23-879 S686A) above, with F668A, G672A counted along it
- assaySummary: GIRK channel whole cell patch clamp in HEK 293 T cells
- studyConditions: read-out: Glutamate EC50, GIRK activation; normalized to saturating (1 mM) glutamate; unit inferred
experimentalEndpoint: EC50 (nM)
Please respond with the number in nM and leave the unit unwritten.

# return EC50 of N[C@@H](CCC(=O)O)C(=O)O [glutamate] (system: mGluR3-3xTM4 (Rattus norvegicus, UniProt P31422, F690A/G694A/S686A))
1020

---

- target: mGluR3-3xTM4 (Rattus norvegicus, UniProt P31422, F690A/G694A/INS669ASEIGTGFPFDPHYVEVLGERMHYVDVGPRDGTPVLFLHGNPTSSYVWRNIIPHVAPTHRCIAPDLIGMGKSDKPDLGYFFDDHVRFMDAFIEALGLEEVVLVIHDWGSALGFHWAKRNPERVKGIAFMEFIRPIPTWDEWPEFARETFQAFRTTDVGRKLIIDQNVFIEGTLPMGVVRPLTEVEMDHYREPFLNPVDREPLWRFPNELPIAGEPANIVALVEEYMDWLHQSPVPKLLFWGTPGVLIPPAEAARLAKSLPNCKAVDIGPGLNLLQEDNPDLIGSEIARWLSTLEISGLE/S686A)
- Sequence (P31422 with tags, fused parts or gaps with the stated changes): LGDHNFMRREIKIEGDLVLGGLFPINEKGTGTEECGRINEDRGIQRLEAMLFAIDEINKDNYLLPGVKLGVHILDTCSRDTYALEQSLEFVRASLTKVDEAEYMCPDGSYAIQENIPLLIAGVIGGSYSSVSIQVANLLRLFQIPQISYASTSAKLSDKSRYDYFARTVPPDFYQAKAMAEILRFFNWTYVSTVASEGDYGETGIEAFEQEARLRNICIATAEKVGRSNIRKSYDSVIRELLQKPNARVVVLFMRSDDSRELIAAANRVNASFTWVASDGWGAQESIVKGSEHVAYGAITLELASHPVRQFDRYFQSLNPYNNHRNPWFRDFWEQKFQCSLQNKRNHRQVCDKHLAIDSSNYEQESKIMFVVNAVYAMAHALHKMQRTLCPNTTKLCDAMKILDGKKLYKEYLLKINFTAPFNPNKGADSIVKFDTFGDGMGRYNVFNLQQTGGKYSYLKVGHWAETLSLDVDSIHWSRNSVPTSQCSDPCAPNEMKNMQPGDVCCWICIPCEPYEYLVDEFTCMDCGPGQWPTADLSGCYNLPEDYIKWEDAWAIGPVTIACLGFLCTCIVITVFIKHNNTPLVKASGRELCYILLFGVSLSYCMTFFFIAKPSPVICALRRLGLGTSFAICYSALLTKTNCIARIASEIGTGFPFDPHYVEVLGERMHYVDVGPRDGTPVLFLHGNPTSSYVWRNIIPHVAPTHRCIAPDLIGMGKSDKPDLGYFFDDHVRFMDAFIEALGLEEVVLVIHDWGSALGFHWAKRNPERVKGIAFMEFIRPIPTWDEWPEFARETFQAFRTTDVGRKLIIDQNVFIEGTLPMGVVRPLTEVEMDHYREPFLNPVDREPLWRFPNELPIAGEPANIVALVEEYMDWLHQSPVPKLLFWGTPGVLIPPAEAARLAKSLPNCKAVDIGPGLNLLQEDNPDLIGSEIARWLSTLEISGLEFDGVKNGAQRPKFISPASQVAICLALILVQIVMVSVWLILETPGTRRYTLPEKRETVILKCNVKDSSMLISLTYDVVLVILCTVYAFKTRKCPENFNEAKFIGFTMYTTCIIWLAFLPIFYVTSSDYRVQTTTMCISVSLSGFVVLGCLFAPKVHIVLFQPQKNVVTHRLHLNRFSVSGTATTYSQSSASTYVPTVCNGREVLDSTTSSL
- assaySummary: Inter-TMD FRET sensor (HaloTag in ICL2), live cells
- studyConditions: read-out: Glutamate EC50, inter-TMD FRET; normalized to saturating (1 mM) glutamate; unit inferred
experimentalEndpoint: EC50
Your answer should be a number followed by the unit of measure.

Item N[C@@H](CCC(=O)O)C(=O)O [glutamate] : provide EC50
560 nM

---

- target: mGluR3-3xTM4_W (Rattus norvegicus, UniProt P31422, F690W/G694W/S686W)
- Sequence (P31422 23-879 S686W/F690W/G694W): as the sequence (P31422 23-879 S686A) above, with A664W, F668W, G672W counted along it
- assaySummary: Calcium imaging in HEK 293 T cells
- studyConditions: read-out: Glutamate EC50, calcium imaging; normalized to saturating (1 mM) glutamate; unit inferred
experimentalEndpoint: EC50
Dear colleague, please send the value followed by its unit.

Give the reported value of EC50 for this record: N[C@@H](CCC(=O)O)C(=O)O [glutamate]
186 µM

Data provenance is paper PMC8102066.
